Taken from PubChem BioAssay (NCI).

system: SF-539 CNS; assay: NCI tumour cell line growth inhibition, 48 h; in the data active means GI50 below about 0.43 µM; inactive means the rest
Possible outcomes: active, inactive

O=C(/C=C/c1c(-c2ccccc2)[nH]c2ccccc12)S(=O)(=O)c1ccccc1 | inactive
CCCCc1ccc(NS(=O)(=O)c2cc3c4c(c2)CCN4C(=O)CC3)cc1 | inactive
C1C[OH+]CCNCC[OH+]CC[OH+]CCN1.O.[Cl-].[Pt+4] | inactive
COc1cc(C=C2c3ccccc3C(=O)c3ccccc32)ccc1OCCCCOc1cc2c(cc1OC)C(=O)N1CCCC1C=N2 (stereo not drawn) | active
COc1ccccc1/C=C/C(=O)c1ccc(Nc2nc(Nc3ccc(F)cc3)nc(Nc3ccc(F)cc3)n2)cc1 | inactive
N#Cc1cc(-c2ccnc(Nc3ccc(NC(=O)CCl)cc3)n2)ccc1N1CCCC1 | inactive
O=C(CCCBr)Nc1ccccc1C#C/C=C\C#Cc1ccccc1C(F)(F)F | inactive
CCC(=O)OCC1OC(n2cnc3c(=S)nc(N)[nH]c32)C(OC(=O)CC)C1OC(=O)CC (stereo not drawn) | inactive
COc1cc(Nc2ncc3c(C)nc(-c4cccc(C(F)(F)F)c4)n3n2)cc(OC)c1OC | inactive
CN(c1ccc(C(=O)O)cc1)c1cc(O/N=[N+](\[O-])N(C)C)c([N+](=O)[O-])cc1[N+](=O)[O-] | inactive
COc1cc2c(Oc3ccc4[nH]c(C)cc4c3F)ncnc2cc1OCCCN1CCCC1 | inactive
Cn1cc(-c2csc(-c3c[nH]c4ccc(F)cc34)n2)c2cccnc21 | inactive
CN(c1ccc(Cl)c(Cl)c1)c1cnc2cc(N)cc(N)c2n1 | inactive
O=C(c1ccc(Oc2ccccc2)cc1Cl)c1c[nH]c2ncnc(N[C@@H]3CC[C@@H](CO)OC3)c12 | inactive
COc1cc(C(=O)/C=C/c2c(-c3cccs3)nc3sccn23)cc(OC)c1OC | inactive
CCOC(=O)c1cc(C(=O)c2cc(OC)cc(OC)c2)n2nc(C)ccc12 | active
CO[C@H]1/C=C/[C@@](C)(O)/C=C/C(=O)O[C@H](C)[C@@H](C)CC/C=C/1C | inactive
CCCCN1C=CCN(CCCC)C1 | inactive
